Tested on: intestinal alkaline phosphatase [Mus musculus]
Experiment: mouse intestinal phosphatase enzyme activation – biochemical, luminescence, single concentration, confirmation (AID 434970)
Settings: purified mouse IAP, CDP-Star luminescence, 30 min, at 10 µM; stronger effect = lower value
Screen size: about 11,000 compounds; about 310 (2.8%) were called active. For the sample, actives were picked, then their nearest neighbours and some compounds at random.
For each record, write down the corresponding activity change, negative = activation.
Output spec: scalar in %, unitless text.

### Prompt Using known records, supply activity change, negative = activation for `FC(F)Oc1ccc(NC(=S)NCc2ccccc2)cc1Cl`
### Response -34.3

### Prompt Using known records, supply activity change, negative = activation for CCc1cccc(CC)c1NC(=O)CSc1nc2ccc(N3C(=O)C4C5C=CC(C5)C4C3=O)cc2s1 (stereo not drawn)
### Response 4.1

### Prompt Using known records, supply activity change, negative = activation for `Cc1cc[n+](CCC(=O)O)c2ccccc12`
### Response 9.85
